Molecular target: hNav1.7 (Homo sapiens, UniProt Q15858)
Sequence (Q15858 1-1977 isoform Q15858-3): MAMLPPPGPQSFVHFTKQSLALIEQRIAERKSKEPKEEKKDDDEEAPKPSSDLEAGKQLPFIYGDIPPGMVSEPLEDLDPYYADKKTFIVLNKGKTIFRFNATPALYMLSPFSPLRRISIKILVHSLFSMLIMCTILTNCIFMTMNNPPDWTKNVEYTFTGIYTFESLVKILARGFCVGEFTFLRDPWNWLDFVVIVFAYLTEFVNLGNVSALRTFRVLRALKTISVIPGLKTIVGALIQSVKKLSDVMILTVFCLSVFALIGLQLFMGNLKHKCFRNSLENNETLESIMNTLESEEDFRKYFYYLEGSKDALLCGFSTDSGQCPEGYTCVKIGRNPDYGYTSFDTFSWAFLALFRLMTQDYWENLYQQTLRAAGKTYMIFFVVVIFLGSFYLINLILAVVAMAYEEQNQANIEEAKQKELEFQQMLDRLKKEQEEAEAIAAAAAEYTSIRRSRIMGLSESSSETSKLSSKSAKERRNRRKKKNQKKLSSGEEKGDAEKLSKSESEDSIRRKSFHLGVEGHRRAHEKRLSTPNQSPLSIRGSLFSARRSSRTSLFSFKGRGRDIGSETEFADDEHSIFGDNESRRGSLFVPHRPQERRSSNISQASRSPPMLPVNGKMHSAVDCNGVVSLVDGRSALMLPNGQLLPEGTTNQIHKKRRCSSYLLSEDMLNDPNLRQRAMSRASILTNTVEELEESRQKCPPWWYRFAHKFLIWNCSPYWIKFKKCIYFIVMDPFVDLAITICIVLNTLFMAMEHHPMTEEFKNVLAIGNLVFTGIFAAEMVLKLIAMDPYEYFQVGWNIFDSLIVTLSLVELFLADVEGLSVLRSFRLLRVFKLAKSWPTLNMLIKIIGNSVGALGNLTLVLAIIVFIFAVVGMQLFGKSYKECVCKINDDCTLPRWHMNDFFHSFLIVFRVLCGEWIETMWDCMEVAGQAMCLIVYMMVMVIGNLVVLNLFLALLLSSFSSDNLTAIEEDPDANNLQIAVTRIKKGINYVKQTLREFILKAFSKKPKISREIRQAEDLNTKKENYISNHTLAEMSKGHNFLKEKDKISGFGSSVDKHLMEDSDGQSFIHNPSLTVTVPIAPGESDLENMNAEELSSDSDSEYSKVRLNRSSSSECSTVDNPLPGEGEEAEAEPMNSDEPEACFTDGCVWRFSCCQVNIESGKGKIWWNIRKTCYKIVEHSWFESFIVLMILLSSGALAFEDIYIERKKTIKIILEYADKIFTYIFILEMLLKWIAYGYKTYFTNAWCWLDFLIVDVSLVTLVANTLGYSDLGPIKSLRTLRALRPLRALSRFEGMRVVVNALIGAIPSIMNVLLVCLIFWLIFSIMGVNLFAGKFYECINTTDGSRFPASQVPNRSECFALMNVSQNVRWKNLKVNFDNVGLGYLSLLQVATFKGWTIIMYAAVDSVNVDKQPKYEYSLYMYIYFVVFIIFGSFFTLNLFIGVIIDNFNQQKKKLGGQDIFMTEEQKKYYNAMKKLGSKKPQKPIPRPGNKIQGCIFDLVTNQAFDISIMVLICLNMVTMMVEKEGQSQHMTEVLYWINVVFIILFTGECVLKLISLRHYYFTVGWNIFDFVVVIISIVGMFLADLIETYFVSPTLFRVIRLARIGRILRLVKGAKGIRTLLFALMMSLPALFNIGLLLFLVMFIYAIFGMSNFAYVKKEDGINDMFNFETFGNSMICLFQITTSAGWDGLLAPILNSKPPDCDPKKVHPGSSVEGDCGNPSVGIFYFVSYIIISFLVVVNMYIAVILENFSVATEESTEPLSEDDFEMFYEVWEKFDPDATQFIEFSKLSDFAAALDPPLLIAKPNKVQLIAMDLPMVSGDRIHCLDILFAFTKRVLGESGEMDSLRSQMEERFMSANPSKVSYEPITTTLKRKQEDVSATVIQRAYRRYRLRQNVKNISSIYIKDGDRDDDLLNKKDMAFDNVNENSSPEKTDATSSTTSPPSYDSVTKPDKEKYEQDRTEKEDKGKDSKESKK
Sequence (Q07699 19-218 partner): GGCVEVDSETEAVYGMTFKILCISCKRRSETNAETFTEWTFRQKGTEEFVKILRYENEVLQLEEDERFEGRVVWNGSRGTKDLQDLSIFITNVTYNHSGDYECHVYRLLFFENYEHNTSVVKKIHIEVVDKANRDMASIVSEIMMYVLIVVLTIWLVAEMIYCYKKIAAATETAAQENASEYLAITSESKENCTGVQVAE
Assay: Tritiated compound binding (LBA) to membranes from cells expressing hNav1.7 and the β1 subunit, competitive binding
Conditions: competitive binding vs 100 pM [3H]compound, 18 h, room temperature, membranes with hNav1.7 and β1 subunit
Counter-ions that a name gives are not always drawn.
quantityName: IC50 (nM)

In the examples that follow, each entry is paired with its recorded IC50.
compound: O=C(O)[C@@H]1CCCN1C(=O)c1cc(C2CC2)c(OC2CN(C(c3ccccc3)c3ccccc3)C2)cc1F
assayedSystem: hNav1.7 (Homo sapiens, UniProt Q15858)
IC50 [nM]: 490

compound: O=C(O)[C@@H]1CCCN1C(=O)c1cc(C2CC2)c(OCC2CCN(Cc3cc(F)cc(Cl)c3)CC2)cc1F
assayedSystem: hNav1.7 (Homo sapiens, UniProt Q15858)
IC50 [nM]: 190

compound: COC[C@H](c1cc(Cl)cc(Cl)c1)N1CCC(COc2cc(F)c(C(=O)N3C[C@H](F)C[C@H]3C(=O)O)cc2C2CC2)CC1
assayedSystem: hNav1.7 (Homo sapiens, UniProt Q15858)
IC50 [nM]: 27

compound: CC(C)COc1ncc(Oc2cc(F)c(C(=O)N[C@H](C(=O)O)C(C)C)cc2Cl)cc1Cl
assayedSystem: hNav1.7 (Homo sapiens, UniProt Q15858)
IC50 [nM]: 100

compound: CC(c1cc(Cl)cc(Cl)c1)N1CCC(COc2cc(F)c(C(=O)N3CCC[C@H]3C(=O)O)cc2C2CC2)CC1 (stereo partly shown) [Example 39, trifluoroacetic acid salt]
assayedSystem: hNav1.7 (Homo sapiens, UniProt Q15858)
IC50 [nM]: 43.6

compound: C[C@H]1OCN(C(=O)c2cc(C3CC3)c(OCC3CCN(Cc4cc(C(F)(F)F)ccc4Cl)CC3)cc2F)[C@@H]1C(=O)O
assayedSystem: hNav1.7 (Homo sapiens, UniProt Q15858)
IC50 [nM]: 17

compound: C[C@@H](c1cc(Cl)cc(Cl)c1)N1CCC[C@H](COc2cc(F)c(C(=O)N3CCC[C@H]3C(=O)O)cc2C2CC2)C1 (single isomer, unassigned) [Example 73b]
assayedSystem: hNav1.7 (Homo sapiens, UniProt Q15858)
IC50 [nM]: 93

compound: CO[C@H]1CN(C(=O)c2cc(C3CC3)c(OCC34CC5CC(CC(C5)C3)C4)cc2F)[C@H](C(=O)O)C1C (stereo partly shown)
assayedSystem: hNav1.7 (Homo sapiens, UniProt Q15858)
IC50 [nM]: 170

(a) CC(C)(C)[C@H](NC(=O)c1cc(C2CC2)c(OCC23CC4CC(CC(C4)C2)C3)cc1F)C(=O)O
(b) O=C(NC(C(=O)O)C1CCC1)c1cc(C2CC2)c(OCC2(F)CCN(Cc3cc(C(F)(F)F)ccc3Cl)CC2)cc1F (stereo not shown)
Task item: Parameter check: reported IC50 is higher for which label, a or b ? State the label of the item chosen.
Reply: b

(P) C[C@H]1[C@H](O)CN(C(=O)c2cc(C3CC3)c(OCC34CC5CC(CC(C5)C3)C4)cc2F)[C@@H]1C(=O)O
(Q) O=C(O)[C@@H]1C[C@@H](F)CN1C(=O)c1cc(C2CC2)c(OCC2(F)CCN(Cc3ccc(F)c(Cl)c3)CC2)cc1F
Task item: Looking at recorded values for IC50, does P or Q come in lower? State your choice using its label.
Reply: P
(P: 21 nM, Q: 87 nM)
